- assayText: blockers of RIG-like receptor reporter activation – cell-based, Sendai virus stimulus, luciferase, 10K MLSCN set, TLR/RLR signaling modifier project, primary screen (AID 602276);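 note: firefly luciferase from ISG56 promoter only with Renilla not read in this screen; 0% = Sendai virus plus DMSO and 100% = medium plus DMSO without virus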
- experimentalParameters: HEK293 RL24 IRF3 luciferase reporter, at 10 µM, hits give high values

| compound | measureUnit | inhibition |
| --- | --- | --- |
| Cc1ccc(-c2nc3cnccn3c2Nc2ccc3c(c2)OCO3)o1 | % | 5.62 |
| C=CCNC(=O)c1cccc(Br)c1 | % | -5.88 |
| CCN1CCN(C(=O)Cn2ncc3ccsc3c2=O)CC1 | % | 3.05 |
| Cc1nn(C)c(C)c1NC(=O)CCSc1nc(-c2ccco2)cc(C(F)(F)F)n1 | % | 4.67 |
| COc1ccc(C(=O)NCCn2ccc3ccccc32)c(OC)c1 | % | 1.44 |
| COC(=O)[C@H](C)NC(=O)Nc1cc(OC)ccc1OC | % | -3.29 |
| O=C(c1c(Cl)nc2sccn12)N(C(=O)c1c(Cl)nc2sccn12)c1ccc(Cl)cn1 | % | -31.5 |
| CC1(C)Cc2cccc(OCC(=O)O)c2O1 | % | 11.4 |
| COc1ccccc1NC1=NC(c2ccc(Cl)cc2)N=C(N)N1 (stereo not drawn) | % | 29.3 |
| O=C(NC1=NCCS1)NC12CC3CC(CC(C3)C1)C2 | % | -1.24 |
| Cc1nn(Cc2ccc(C(=O)NC3CCCCC3)o2)c(C)c1Br | % | 7.39 |
| CCCCCn1c(N2CCN(Cc3ccccc3)CC2)nc2c1c(=O)[nH]c(=O)n2C | % | 14.2 |
| C=C(C)c1cccc(C(C)(C)NC(=O)NCC2CCCO2)c1 (stereo not drawn) | % | 7.08 |
| O=c1c2c(-c3ccccc3)csc2nc2n1CCC2 | % | -15.3 |
| O=C(c1ccc2c(c1)OCCO2)C1CCN(C(=O)c2ccc(F)cc2)CC1 | % | 7.11 |
| N#Cc1cc2ccc(N3CCOCC3)cc2cc1C#N | % | 7.25 |
| COc1ccc(N2CCN(C(=O)Cc3ccc(-n4c(=O)[nH]c5ccccc5c4=O)cc3)CC2)cc1 | % | 7.13 |
| O=C(CN1C(=O)NC2(CCCCC2)C1=O)Nc1ccc(S(=O)(=O)N2CCOCC2)cc1 | % | 9.77 |
| FC(F)(F)c1cc(-c2ccco2)nc(NCc2ccco2)n1 | % | 14.2 |
| O=C(Nc1ccncc1)C1c2ccccc2Oc2ccccc21 | % | 12.2 |
| COCCNC(=O)C(c1ccc(C)o1)N(Cc1ccc(OC)cc1)C(=O)Cn1nnc2ccccc21 (stereo not drawn) | % | 10.1 |
| COc1ccc(N(CC(=O)Nc2ccc3c(c2)OCO3)S(=O)(=O)c2c(C)nn(C)c2C)cc1 | % | 10.2 |
| Nc1nc(Nc2cccc3ccccc23)nc(C2CCCC2=O)n1 (stereo not drawn) | % | 4.53 |

----------
Listing of entries alongside the reported fluorescence slope.
- targetOrSystem: Voltage-gated potassium channel subunit beta-2 (Rattus norvegicus) (UniProt P62483)
- Sequence (P62483 whole entry, looked up): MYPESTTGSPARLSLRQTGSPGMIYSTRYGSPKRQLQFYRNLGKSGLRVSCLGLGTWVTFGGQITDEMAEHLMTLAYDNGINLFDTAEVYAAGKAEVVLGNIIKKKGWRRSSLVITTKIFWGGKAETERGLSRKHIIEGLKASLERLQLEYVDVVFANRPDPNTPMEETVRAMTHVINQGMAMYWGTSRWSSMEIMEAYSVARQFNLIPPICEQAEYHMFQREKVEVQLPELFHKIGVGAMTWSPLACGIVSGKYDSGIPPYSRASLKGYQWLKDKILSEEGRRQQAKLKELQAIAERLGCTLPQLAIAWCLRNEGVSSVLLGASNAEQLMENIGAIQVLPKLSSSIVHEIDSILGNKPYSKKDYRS
- assayText: inhibitors of rat Kvbeta2 reductase activity – biochemical, NADPH fluorescence, primary screen (AID 622);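 note: slope of raw intensity against log time taken from 70 to 1610 s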
- experimentalParameters: recombinant KvBeta, 4-cyanobenzaldehyde reduction, at 10 µM, hits give high values
Active and inactive are the calls of the source.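 The calls were made as follows: active = fluorescence slope higher than the sample average by over 3 SD (cut at about -0.22 in these data, passing the limit was not always enough); inactive = the rest.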

| compound | fluorescence slope |
| --- | --- |
| CC(=O)c1ccc(OC(=O)c2cccs2)cc1 | -0.498 (inactive) |
| Cn1cccc1Cc1nnc(SCC(=O)N2CCOCC2)n1-c1ccc(F)cc1 | -0.527 (inactive) |
| COC1CCCCC1Nc1cccc(SC)c1 (stereo unspecified) | -0.414 (inactive) |
| COc1ccc(-c2nc3c(c(SCC(=O)N4CCOCC4)n2)COC(C)(C)C3)cc1 | -0.387 (inactive) |
| Cc1cc2ncn(C(=O)c3c(-c4ccccc4)noc3C)c2cc1C | -0.433 (inactive) |
| CCc1ccccc1N1CC23C=CC(O2)C(C(=O)O)C3C1=O (stereo unspecified) | -0.515 (inactive) |
| COc1ccccc1NC(=O)C1=C(C)Nc2nnnn2C1c1ccccc1OC (stereo unspecified) | -0.415 (inactive) |
| Cc1cc(C)nc(NC2=NCC(=O)N2c2ccccc2Br)n1 | -0.4 (inactive) |
| O=C(OCn1nnc2ccccc2c1=O)c1cc2ccccc2o1 | -0.447 (inactive) |
| CCOc1ccccc1N(C(=O)Cn1nnnc1-c1ccc(C)o1)C(CC)C(=O)NC(C)(C)C (stereo unspecified) | -0.531 (inactive) |
| CCn1cc(C(=O)NCCCOC)c(=O)c2cc(S(=O)(=O)N(C)C3CCCCC3)ccc21 | -0.678 (inactive) |
| COC(=O)CSc1nnc(-c2ccncc2)o1 | -0.46 (inactive) |
| O=C(NCN1CCCCC1)c1cccnc1 | -0.488 (inactive) |
| COC(=O)Nc1sc2c(c1C(N)=O)CCCCCC2 | -0.509 (inactive) |
| CCCSCCCNC(=O)Cn1cc2c(n1)CCC(C)C2 (stereo unspecified) | -0.615 (inactive) |
| Cc1ccc(S(=O)(=O)N2CCCC2C(=O)OCc2nc3ccccc3s2)cc1 (stereo unspecified) | -0.519 (inactive) |
| Cc1cc(C)nc(N(C#N)CC(=O)N2CCC(C(N)=O)CC2)n1 | -0.489 (inactive) |
| O=C(Cn1c(=O)n(CC2CCCO2)c(=O)c2ccccc21)c1ccccc1 (stereo unspecified) | -0.51 (inactive) |
| C#CCNc1c(C)c(C)nc2ncnn12 | -0.592 (inactive) |
| COc1ccccc1CNC(=O)C1CCC(CNc2c(N3CCOCC3)c(=O)c2=O)CC1 (stereo unspecified) | -0.592 (inactive) |
| OC(CN1CCN(c2ccccn2)CC1)Cn1c2ccccc2c2ccccc21 (stereo unspecified) | -0.472 (inactive) |
| CC(C)CCNC(=O)C(c1cccs1)N(CC1CCCO1)C(=O)Cn1nnc2ccccc21 (stereo unspecified) | -0.451 (inactive) |
| CCCc1cc(=O)[nH]c(/N=C(\N)Nc2ccccc2)n1 | -0.431 (inactive) |
| CCOc1ccc(N(CC(=O)NC2CCCCC2)S(=O)(=O)c2c(C)noc2C)cc1 | -0.616 (inactive) |
| CC(=O)N1CCN(C(C)=O)C1c1ccccc1 | -0.376 (inactive) |
| Cc1cccc(C(=O)N2CCC(n3nnc4cc(F)ccc43)CC2)c1 | -0.325 (inactive) |
| CCCn1c(SCC(=O)N2CCN(c3ccccc3)CC2)nc2ccccc2c1=O | -0.595 (inactive) |
| CCOC(=O)Cn1c(=N)n(CCOc2cccc(C)c2)c2ccccc21 | -0.322 (inactive) |
| CN1C(=O)CC(N2CCC(C(N)=O)(N3CCCCC3)CC2)C1=O (stereo unspecified) | -0.593 (inactive) |
| CCCCOc1ccc(C(=O)N2CCC(C)CC2)cc1 | -0.434 (inactive) |
| CC1(C)CC(=O)C2=C(C1)OC(N)=C(C#N)C2C1CC=CCC1 (stereo unspecified) | -0.556 (inactive) |
| O=c1[nH]c(N2CCCCC2)nc2c1CCCC2 | -0.265 (inactive) |
| Cc1nn(-c2ccccc2)c2sc(C(=O)N3CCOCC3)cc12 | -0.398 (inactive) |
| CCCCOc1ccc(CSc2n[nH]c(C)n2)cc1 | -0.435 (inactive) |
| O=C(NCCCCNC(=O)c1c(F)c(F)c(F)c(F)c1F)c1c(F)c(F)c(F)c(F)c1F | -0.308 (inactive) |
| CCOC(=O)Cn1nnnc1C(C(C)C)N(Cc1cc2c(C)cc(C)cc2[nH]c1=O)C1CCCC1 (stereo unspecified) | -0.498 (inactive) |
| COC(=O)CSC1=NS(=O)(=O)c2ccccc21 | -0.5 (inactive) |
| CSc1ccc(Cn2nnc(C(=O)NCc3ccccc3)c2N)cc1 | -0.478 (inactive) |
| CCCSc1nnc(-c2ccccc2NC(=O)CC)c(=O)[nH]1 | -0.412 (inactive) |
| COc1cccc(-c2nc(CS(=O)(=O)CC(=O)NCc3ccc(Cl)cc3)c(C)o2)c1 | -0.554 (inactive) |
| COCCN(Cc1cc2cccc(C)c2[nH]c1=O)C(=O)c1ccccc1 | -0.372 (inactive) |
| COc1ccc(N2CCN(CCCNC(=O)CC3Oc4ccc(C)cc4NC3=O)CC2)cc1 (stereo unspecified) | -0.472 (inactive) |
| CC(=O)N1CCN(c2ccc(N=Cc3c(O)n(Cc4ccccc4)c(=O)[nH]c3=O)cc2)CC1 | -0.525 (inactive) |
| O=C(O)c1ccc2c3c(ncnc13)-c1ccccc1C2=O | -0.155 (inactive) |
| CCCOC(=O)c1[nH]c2c(c1C)C(=O)CC(c1ccc(OC)c(OC)c1)C2 (stereo unspecified) | -0.408 (inactive) |
| COC(=O)C(C)Sc1nnc2n(-c3cccc(C)c3)c(=O)c3c4c(sc3n12)CCCC4 (stereo unspecified) | -0.58 (inactive) |

Hey, just so you know, these numbers are from PubChem BioAssay.
